# Assay procedure: Bioavailability in Beagle dog at 1 mg/kg, po or 0.5 mg/kg, iv administered as single dose and measured for 24 hrs by LC-MS/MS analysis
# Assay type: ADME, organism-based, Canis lupus familiaris
# Run parameters: in vivo
Quantity: bioavailability (%)
State the answer as a number, implicitly in %.

For record "Cc1n[nH]c2ccc(-c3nnc(C)n3Cc3ccc(C(F)(F)F)cc3)cc12" the listed bioavailability is 102

###

// reported CLint scaled at 1 µM for each item listed
# Assay procedure: Metabolic stability in human liver microsomes assessed as intrinsic clearance at 1 uM preincubated for 10 mins followed by NADPH addition and measured for 60 mins by LC-MS/MS analysis
# Format: ADME, Microsome
# Run parameters: read-out: CLH

A selection of reference data follows.
Cc1n[nH]c2ccc(-c3nnc4n3[C@H](c3ccc(Cl)cc3)CNC4)cc12; 64.9 mL/min/kg
Cc1n[nH]c2ccc(-c3nnc4n3[C@H](c3ccc(Cl)cc3)COC4)cc12; 92 mL/min/kg

The recorded CLint scaled at 1 µM for "Cc1nnc(-c2ccc3[nH]nc(Cl)c3c2)n1Cc1ccc(Cl)cc1" is 10.8 mL/min/kg

Input "Cc1n[nH]c2ccc(-c3nnc4n3[C@H](c3ccc(Cl)cc3)CCC4)cc12" . Output CLint scaled at 1 µM: 87.1 mL/min/kg

CLint scaled at 1 µM reported for this molecule "Cc1n[nH]c2ccc(-c3nnn(C)c3Cc3ccc(Cl)cc3)cc12" : 66.1 mL/min/kg

The recorded CLint scaled at 1 µM for entry "Cc1n[nH]c2ccc(-c3nnc4n3[C@H](c3ccc(Cl)cc3)CC4)cc12" equals 23.1 mL/min/kg

CLint scaled at 1 µM recorded for this molecule, "Cc1n[nH]c2ccc(-c3cnn(C)c3Cc3ccc(Cl)cc3)cc12" , is 59.2 mL/min/kg
